Origin of measurements: ChEMBL document CHEMBL5233208

target: Cytochrome P450 2C9 (Homo sapiens, UniProt P11712)
Sequence (P11712 whole entry): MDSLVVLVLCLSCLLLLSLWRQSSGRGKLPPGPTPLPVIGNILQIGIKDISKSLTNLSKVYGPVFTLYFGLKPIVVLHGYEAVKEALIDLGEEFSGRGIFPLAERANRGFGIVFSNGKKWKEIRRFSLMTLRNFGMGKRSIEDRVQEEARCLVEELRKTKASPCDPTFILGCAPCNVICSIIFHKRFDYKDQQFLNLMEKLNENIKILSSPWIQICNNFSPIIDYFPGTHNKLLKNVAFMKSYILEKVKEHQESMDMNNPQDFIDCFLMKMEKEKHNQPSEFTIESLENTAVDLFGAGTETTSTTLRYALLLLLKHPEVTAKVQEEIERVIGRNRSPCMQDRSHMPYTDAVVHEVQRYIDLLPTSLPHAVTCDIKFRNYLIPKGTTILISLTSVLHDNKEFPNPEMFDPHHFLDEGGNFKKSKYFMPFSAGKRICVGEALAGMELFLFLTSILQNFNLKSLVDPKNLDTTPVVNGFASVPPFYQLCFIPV
value kind: IC50

Consider CC1(C(=O)NS(=O)(=O)c2ccc(Cl)s2)CCN(c2nc3c(cc2C#N)C(=O)OC3)CC1 . Its measured IC50 is > 50 µM

----------
I'd be grateful if you could share measured log10(Cmax) for these entries.
experiment: Cmax in Sprague-Dawley rat at 5 mg/kg,po measured up to 24 hrs by LC-MS/MS analysis; format: ADME, organism-based; design: time < 24 hrs, dose 5 mg/kg, route po; conditions: in vivo
In our notation, the value equals log10 of Cmax in ng/mL.

{"compound structure string": "N#Cc1cc2c(nc1N1CCC(F)(C(=O)NS(=O)(=O)Cc3ccccc3)CC1)COC2=O", "log10(Cmax)": 2.17}
{"compound structure string": "N#Cc1cc2c(nc1N1CCC(C(=O)NS(=O)(=O)Cc3ccccc3)CC1)COC2=O", "log10(Cmax)": 2.43}
{"compound structure string": "CC1(C(=O)NS(=O)(=O)c2ccc(Cl)s2)CCN(c2nc3c(cc2C#N)C(=O)OC3)CC1", "log10(Cmax)": 2.68}

Hi! Can you tell me log10(Cmax) for each of these compounds?
1. CC1(C(=O)NS(=O)(=O)Cc2ccc(Cl)cc2)CCN(c2nc3c(cc2C#N)C(=O)OC3)CC1
2. N#Cc1cc2c(nc1N1CCC(C(=O)NS(=O)(=O)c3ccc(Cl)s3)CC1)COC2=O
3. Cc1ccc(CS(=O)(=O)NC(=O)C2(C)CCN(c3nc4c(cc3C#N)C(=O)OC4)CC2)cc1

Ans:
1. 2.94
2. 2.35
3. 3.22
